- run_description: NCI Yeast Anticancer Drug Screen. Data for the mec2-1 strain (AID 157)
- conditions_used: S. cerevisiae mec2-1 strain, at 5.0 µM (retest, dose inferred, filed as 0.5), active compounds read high
About 79,000 compounds went through this panel and 15% of them were active in at least one assay; those are over-represented in the sample as a whole.
parameter: growth inhibition (%)
One number for each entry, in %.

The examples below pair each entry with its known result.
{"columns": ["molecule", "recorded_value"],
 "data": [
  ["O=C(O)CC(CCCc1ccccc1)C(=O)O (centres undefined)", -41],
  ["CC(=O)OC1CCC2(C)C3CCC4(C)C(C(C)CCCC(C)C)CCC4C3CCC23OC13C (centres undefined)", -17]
]}

Your task in this section: give growth inhibition for each listed record.
1. NNC(=O)NN=C(c1ccccc1)c1ccccc1
2. CCC(=O)N1c2ccccc2CC1c1c[nH]c2ccccc12 (centres undefined)

## Output
1: -2; 2: -10
